Please respond with reported OD450 for every item in the list.
target: T1, human MSLN-hFc protein (Acro, Cat. No. MSN-H5253) (human, UniProt Q13421 296-580); assay: ELISA on coated antigen, antibody 1 nM
T1 construct: the method names the coated protein as human MSLN-hFc (Acro); also called human MSLN full-length protein
T1 sequence (Q13421 other isoform, or with tags, fused parts or gaps limits assumed): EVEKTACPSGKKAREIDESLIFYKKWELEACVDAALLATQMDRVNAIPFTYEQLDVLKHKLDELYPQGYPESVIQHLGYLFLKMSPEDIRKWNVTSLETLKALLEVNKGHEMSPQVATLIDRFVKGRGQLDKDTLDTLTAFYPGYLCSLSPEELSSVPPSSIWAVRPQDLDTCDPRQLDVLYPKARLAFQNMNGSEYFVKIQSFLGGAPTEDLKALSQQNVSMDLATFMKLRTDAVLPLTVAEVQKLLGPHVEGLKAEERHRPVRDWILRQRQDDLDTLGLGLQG
Numbers only; they are read as OD450.

Q. Return reported OD450; argument: F7.33.24-H8 (scFv, not shown: small tags and cut ends, also called S009-F7.33.24 humanized antibody VH2 + VL2) scFv: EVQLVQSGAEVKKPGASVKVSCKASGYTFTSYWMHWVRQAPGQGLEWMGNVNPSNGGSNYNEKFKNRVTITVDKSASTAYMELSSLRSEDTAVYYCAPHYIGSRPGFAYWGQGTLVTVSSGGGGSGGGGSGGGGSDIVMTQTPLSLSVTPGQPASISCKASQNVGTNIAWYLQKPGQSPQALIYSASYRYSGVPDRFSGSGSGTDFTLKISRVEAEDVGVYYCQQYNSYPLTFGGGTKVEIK
A. 0.48

Q. // next record F7.33.24-H7 (scFv, not shown: small tags and cut ends, also called S009-F7.33.24 humanized antibody VH2 + VL1) scFv: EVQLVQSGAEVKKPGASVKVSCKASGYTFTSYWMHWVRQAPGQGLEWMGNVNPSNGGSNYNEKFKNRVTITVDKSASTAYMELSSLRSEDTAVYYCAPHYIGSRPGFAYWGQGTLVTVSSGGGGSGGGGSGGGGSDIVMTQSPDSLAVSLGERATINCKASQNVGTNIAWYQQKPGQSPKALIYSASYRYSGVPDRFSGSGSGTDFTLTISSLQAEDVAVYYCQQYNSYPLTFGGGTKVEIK
A. 0.48

Q. Now consider F7.33.24-H2 (scFv, not shown: small tags and cut ends, also called S009-F7.33.24 humanized antibody VH1 + VL2) scFv: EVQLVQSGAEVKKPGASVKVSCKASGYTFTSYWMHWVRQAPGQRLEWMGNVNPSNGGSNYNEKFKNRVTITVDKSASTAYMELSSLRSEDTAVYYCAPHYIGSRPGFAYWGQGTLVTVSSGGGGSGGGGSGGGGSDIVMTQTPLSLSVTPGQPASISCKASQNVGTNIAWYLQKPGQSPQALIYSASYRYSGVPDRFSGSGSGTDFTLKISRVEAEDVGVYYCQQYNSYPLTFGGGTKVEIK .
A. 0.4
